Overview of recorded pIC50 for various compounds
# subject.of.test: interaction between p53 and MDM2 proteins (Homo sapiens, UniProt Q00987)
# Sequence (Q00987 whole entry): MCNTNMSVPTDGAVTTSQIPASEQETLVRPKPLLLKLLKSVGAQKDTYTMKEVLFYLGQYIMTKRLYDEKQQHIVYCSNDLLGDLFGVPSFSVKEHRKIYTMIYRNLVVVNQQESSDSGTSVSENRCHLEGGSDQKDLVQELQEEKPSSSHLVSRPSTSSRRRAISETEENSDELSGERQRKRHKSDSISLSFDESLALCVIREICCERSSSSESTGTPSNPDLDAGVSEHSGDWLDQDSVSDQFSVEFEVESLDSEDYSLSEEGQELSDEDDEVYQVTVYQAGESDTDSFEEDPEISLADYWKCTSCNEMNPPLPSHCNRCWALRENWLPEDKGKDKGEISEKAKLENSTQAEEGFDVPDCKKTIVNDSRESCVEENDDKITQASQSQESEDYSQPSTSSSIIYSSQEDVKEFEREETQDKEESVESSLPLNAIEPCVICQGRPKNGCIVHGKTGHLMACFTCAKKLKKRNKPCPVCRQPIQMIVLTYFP
# test.description: HTRF assay of inhibition of the p53-MDM2 interaction (GST-MDM2 and biotinylated p53 peptide)
# settings: recombinant GST-tagged MDM2, biotinylated p53 peptide, 37° C. for 1 h
pIC50: −log10 of the molar value.
parameter.measured: pIC50

{"compound": "CCOc1cc(C(C)(C)C)ccc1C1=N[C@@](C)(c2ccc(Cl)cc2)[C@@H](c2ccc(Cl)cc2)N1C(=O)N1CCN(C(C)=O)CC1", "experimental.result": 6.97}
{"compound": "COc1ccc(C2=N[C@@](C)(c3ccc(Cl)cc3)[C@@H](c3ccc(Cl)cc3)N2C(=O)N2CCN(C(C)=O)CC2)c(OC(C)C)c1 (racemic)", "experimental.result": 7.32}
{"compound": "CCOc1cc(S(=O)(=O)N2CCCC2)ccc1C1=N[C@@](C)(c2ccc(Cl)cc2)[C@@](C)(c2ccc(Cl)cc2)N1C(=O)N1CCN(CC(N)=O)CC1", "experimental.result": 7.77}
